Reference source for all entries: the RNAGym collection of RNA variant scans (doi:10.1093/molbev/msab373)

B1: Azoarcus group I ribozyme (parent)
chain: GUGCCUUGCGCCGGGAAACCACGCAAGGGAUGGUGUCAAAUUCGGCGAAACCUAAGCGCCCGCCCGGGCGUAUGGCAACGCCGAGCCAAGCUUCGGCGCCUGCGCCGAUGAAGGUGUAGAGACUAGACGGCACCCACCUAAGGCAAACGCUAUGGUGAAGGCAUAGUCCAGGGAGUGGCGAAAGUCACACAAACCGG

# Variants of: B1
# test protocol: reverse-splicing fitness (ratio to wild type); higher = more active; in vitro selection; Mg2+ level not given
Decide by reverse-splicing fitness: equal to or exceeding 0.008 means criterion met, less means criterion not met.

[in] Does the variant C82A A111G A145C C150A C169U U176C have recorded reverse-splicing fitness that is 0.008 or more?
[out] criterion met

[in] And A111G A120U A145C C150A C169U U176G ?
[out] criterion not met

[in] And C82G A111G A120C A145U C150A C169G U176C ?
[out] criterion met

[in] And C82U A111U A120U A145U C150U C169G U176A ?
[out] criterion not met

[in] And C82U A111G A120C A145G C150G C169A U176G ?
[out] criterion not met

[in] And A111U A120C A145U ?
[out] criterion met

[in] And A111C A120C A145G C150G C169U U176C ?
[out] criterion met

[in] And C82A A120U A145C C169A U176A ?
[out] criterion not met

[in] And C82G A111C A145C C150A C169U U176C ?
[out] criterion met

[in] And C82U A111G A120C C150G C169G U176A ?
[out] criterion not met

[in] And C82G A120U A145U C169G U176G ?
[out] criterion not met
